system: OVCAR-4 ovarian; experiment: NCI-60 one-dose screen, 48 h (100 = growth as untreated, 0 = no growth, -100 = all killed); conditions: 10 µM unless noted
This is part of a sample that, as a whole, favours compounds with a hit. Of some 83,000 tested, about 20% had one in any assay.
API: label(entry) gives T if the entry's growth is strictly smaller than 50%; on equality or larger values it gives F.

Answered cases to consult:
C#Cc1cccc(Nc2nc3ccc([N+](=O)[O-])cc3nc2Nc2cccc(C#C)c2)c1 ... T
N#Cc1c(-c2ccccc2)cc(-c2ccccc2)n(CCCC(=O)NO)c1=O ... T
C=C1C(=O)O[C@H]2[C@H]1CC/C(CNC(=O)c1cc3ccccc3[nH]1)=C\CC[C@@]1(C)O[C@@H]21 ... T
CCc1cccc(Sc2cc(C(=O)N3Cc4ccc(OCCN(C)C)cc4C3)ccc2O)c1 ... F

API: the following record is the query input.
-- ask Determine if COc1ccc2nc3ccccc3c(NCc3ccc(F)cc3)c2c1 shows growth strictly lower than 50%.
-- reply T
